Test: qHTS assay for small molecule disruptors of the mitochondrial membrane potential - 1 hr assay (AID 651754); note: nearly all actives have a fitted effect of over 35% in size
Conditions: series mostly up to 92.2 µM
Excerpt: National Center for Advancing Translational Sciences [NCATS] NIH Chemical Genomics Center [NCGC] National Institutes of Environmental Health Sciences [NIEHS] National Toxicology Program [NTP] Mitochondrial membrane potential (MMP), one of the parameters for mitochondrial function, is generated by mitochondrial electron transport chain that creates an electrochemical gradient by a series of redox reactions. […] The dye accumulates in the mitochondria of healthy cells as aggregates, with red fluorescence. […]
Records with an inconclusive call do not appear. Calls of active or inactive are those of the source. Calls come from the whole dose curve.
Reply using exactly one outcome from yes (1) (active), no (0) (inactive)

INSERT INTO measurements (compound, assigned_label) VALUES
  ('Cc1ccccc1N', 'no (0)'),
  ('C1CCC2CCCCC2C1 (centres undefined)', 'no (0)'),
  ('C=CCOC(C)=O', 'no (0)');

Query block: Hi, do you know how CC(Cl)Cl came out in this test?
Result block: no (0)

Query block: # repeat for Cc1ccc([N+](=O)[O-])cc1C
Result block: no (0)

Query block: # repeat for ClC(Cl)(Cl)c1ccccc1
Result block: no (0)

Query block: # repeat for O=C=NC1CCCCC1
Result block: no (0)

Query block: # repeat for O=[N+]([O-])c1cccc2ccccc12
Result block: no (0)

Query block: # repeat for N#CCCCl
Result block: no (0)

Query block: # repeat for COC1=CC(=O)OC(CCc2ccccc2)C1 (centres undefined)
Result block: no (0)

###

target: Rap guanine nucleotide exchange factor 3 (Homo sapiens) (UniProt O95398); experiment: Confirmatory qHTS for agonist of cAMP-regulated guanine nucleotide exchange factor 3 (EPAC1) (AID 1645881); conditions: EPAC1 Rap1B BODIPY-GDP exchange fluorescence; series mostly up to 154 µM;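 note: EPAC1 catalysed release of BODIPY-GDP from Rap1B seen as fluorescence loss; 100% = effect of cAMP agonist control; nearly all actives have a fitted effect of over 75% in size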
Sequence (O95398 whole entry, looked up): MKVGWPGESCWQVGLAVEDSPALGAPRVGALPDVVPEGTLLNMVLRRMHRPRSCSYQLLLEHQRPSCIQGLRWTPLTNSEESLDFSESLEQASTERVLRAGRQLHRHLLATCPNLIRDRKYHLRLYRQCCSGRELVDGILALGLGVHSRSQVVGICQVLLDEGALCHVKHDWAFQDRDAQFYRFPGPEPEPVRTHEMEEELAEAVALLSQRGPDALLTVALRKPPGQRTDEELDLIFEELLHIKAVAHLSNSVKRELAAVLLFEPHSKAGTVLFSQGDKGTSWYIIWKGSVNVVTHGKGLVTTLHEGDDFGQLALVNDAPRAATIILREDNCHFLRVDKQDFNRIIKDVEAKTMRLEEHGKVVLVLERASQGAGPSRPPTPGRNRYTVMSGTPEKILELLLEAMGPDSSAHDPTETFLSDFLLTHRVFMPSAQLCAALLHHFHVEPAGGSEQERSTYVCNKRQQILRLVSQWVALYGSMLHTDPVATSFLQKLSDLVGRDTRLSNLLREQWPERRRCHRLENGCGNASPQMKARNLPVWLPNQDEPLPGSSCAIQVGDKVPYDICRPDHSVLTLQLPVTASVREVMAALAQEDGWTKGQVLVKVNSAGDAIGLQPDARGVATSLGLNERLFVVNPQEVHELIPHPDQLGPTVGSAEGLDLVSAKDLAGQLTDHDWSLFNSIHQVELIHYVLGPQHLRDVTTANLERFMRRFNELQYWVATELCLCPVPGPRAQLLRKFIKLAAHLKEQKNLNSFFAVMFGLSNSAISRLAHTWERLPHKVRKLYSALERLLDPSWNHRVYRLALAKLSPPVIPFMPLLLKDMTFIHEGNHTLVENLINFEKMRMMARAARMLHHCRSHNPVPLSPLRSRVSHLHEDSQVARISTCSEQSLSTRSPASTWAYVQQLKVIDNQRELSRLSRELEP
Records with an inconclusive call do not appear. Activity calls are given as the source filed them. The call rests on the fitted dose curve; in most records, active means well fitted activation curve with a large enough effect; inconclusive means small, poorly fitted or top-dose-only effect; inactive means no such curve, though single readings can be large or run the other way.
Reply using exactly one outcome from class 1 (active), class 0 (inactive)

Known results for compounds:
INSERT INTO assay_data (compound, target_entity, assigned_label) VALUES
  ('O=C1c2ccccc2-c2cccc3cccc1c23', 'Rap guanine nucleotide exchange factor 3 (Homo sapiens) (UniProt O95398)', 'class 0'),
  ('Cc1cc(=O)oc2cc(OCC(=O)N3CCC(C(=O)O)(c4ccccc4)CC3)ccc12', 'Rap guanine nucleotide exchange factor 3 (Homo sapiens) (UniProt O95398)', 'class 0'),
  ('COc1cc2c(cc1OC)-c1c(OC)c(OC)cc3c1[C@H](C2)N(C)CC3', 'Rap guanine nucleotide exchange factor 3 (Homo sapiens) (UniProt O95398)', 'class 0');

Query block: Hi, do you know how O=C1NC(=O)N(Cc2ccc(F)cc2)C(=O)/C1=C\C=C\c1ccco1 came out in this test?
Result block: class 0

Query block: # repeat for O=C1NC(=S)NC(=O)C1=Cc1cccc2cc3ccccc3cc12
Result block: class 0

Query block: # repeat for Cc1cccc(N2C(=O)NC(=O)/C(=C\c3cccn3-c3ccc(Cl)cc3)C2=O)c1
Result block: class 0

Query block: # repeat for COC(=O)C1=C(c2cc3ccccc3s2)C[C@@H]2CC[C@H]1N2C(=O)NC1CC1
Result block: class 0

Query block: # repeat for Cn1cccc1/C=C1/C(=O)NC(=O)N(Cc2ccc(F)cc2)C1=O
Result block: class 0

Query block: # repeat for O=Cc1c(C(=O)O)n(Cc2ccc(Cl)cc2)c2ccccc12
Result block: class 0

Query block: # repeat for CCC(C)c1ccc(N2C(=O)NC(=O)/C(=C/c3cccn3CCOc3ccc(C)cc3)C2=O)cc1 (stereo unspecified)
Result block: class 0

Query block: # repeat for COc1ccc(OC)c(N2C(=O)NC(=O)/C(=C/c3ccc([N+](=O)[O-])s3)C2=O)c1
Result block: class 0

Query block: # repeat for CCCCn1c(NS(=O)(=O)c2ccc(C)cc2)c(C(=O)OCC)c2nc3ccccc3nc21
Result block: class 0

Query block: # repeat for COc1ccc(C(SCC(NC(=O)OCc2ccccc2)C(=O)O)c2ccc(OC)cc2)cc1 (stereo unspecified)
Result block: class 0

Origin of measurements: PubChem BioAssay (NCATS)
